Target: T1, FPR-GFP fusion protein (human, UniProt P21462 1-350)
T1 construct: Solubilized in dodecyl maltoside from membranes of transfected cells; also called R^F; fluorescent formyl peptide receptor; not shown: Clontech's EGFP (enhanced green fluorescent protein), from its first amino acid
T1 sequence: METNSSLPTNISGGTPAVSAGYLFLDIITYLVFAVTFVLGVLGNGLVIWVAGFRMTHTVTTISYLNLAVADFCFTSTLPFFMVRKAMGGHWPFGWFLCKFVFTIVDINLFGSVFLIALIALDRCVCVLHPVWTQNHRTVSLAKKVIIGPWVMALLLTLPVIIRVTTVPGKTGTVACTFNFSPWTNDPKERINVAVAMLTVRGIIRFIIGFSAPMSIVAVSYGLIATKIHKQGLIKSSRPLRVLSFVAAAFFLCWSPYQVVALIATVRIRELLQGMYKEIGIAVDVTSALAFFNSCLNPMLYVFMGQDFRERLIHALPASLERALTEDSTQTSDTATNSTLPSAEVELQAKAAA
Test: flow cytometry, LRG assembly on DCNi G beads with 30 nM FPR-GFP
No end group written: not given here. *: point of attachment. For = O=C*
Measurement Name: pEC50
Scale explanation: pEC50 corresponds to minus log10 of a concentration expressed in moles per litre.

Reported pEC50 for For-MLFF [fMLFF] was 7.57

Hello, the source for this data is patent US20030235863A1, in case you need it.
